# Test system: LPS-induced NO production in RAW264.7 cells
# procedure_text: Inhibition of LPS-induced NO production (Griess reagent)
# Assay type: cell-based
# cond: Mus musculus, 10 μM compound, 1 h pretreatment, then LPS (1 μg/mL) 24 h, mean ± SD (n = 3)
Give inhibition at 10 µM for every item shown.
Answers are plain numbers, in %.

Example entries and their recorded answers appear below.
1. COc1ccc([C@@H]2CC(=O)c3c(O)cc(OCC(=O)N4CCCCC4CO)cc3O2)cc1O (some centres unmarked); 9.1
2. COc1ccc([C@@H]2CC(=O)c3c(O)cc(OCC(=O)NC(C)C)cc3O2)cc1O; 27.1
3. COc1ccc([C@@H]2CC(=O)c3c(O)cc(OCC(=O)NCCN4CCOCC4)cc3O2)cc1O; 18.4
4. CCCNC(=O)COc1cc(O)c2c(c1)O[C@H](c1ccc(OC)c(O)c1)CC2=O; 38.2

Parameters: items (list). Returns: inhibition at 10 µM for each item.
1. COc1ccc([C@@H]2CC(=O)c3c(O)cc(OCC(=O)N4CCCC(CO)C4)cc3O2)cc1O (some centres unmarked)
2. COc1ccc([C@@H]2CC(=O)c3c(O)cc(OCC(=O)N4CCSC4)cc3O2)cc1O
3. Cc1ccc(-c2cc(C(F)(F)F)nn2-c2ccc(S(N)(=O)=O)cc2)cc1 [Cel, celecoxib, reference compound]
4. CCNC(=O)COc1cc(O)c2c(c1)O[C@H](c1ccc(OC)c(O)c1)CC2=O

1. 19.3
2. 22.7
3. 14.5
4. 21.5

----------
What melting point was measured for each of the following?

For orientation, consider the following solved cases.
1. COc1ccc([C@@H]2CC(=O)c3c(O)cc(OCC(=O)NC(C)C)cc3O2)cc1O [Compound 4e]; 157.6 to 160.4 °C
2. CCCCNC(=O)COc1cc(O)c2c(c1)O[C@H](c1ccc(OC)c(O)c1)CC2=O [Compound 4f]; 136.9 to 138.4 °C
3. CCN1CCN(C(=O)COc2cc(O)c3c(c2)O[C@H](c2ccc(OC)c(O)c2)CC3=O)CC1 [Compound 6e]; 160.7 to 162.9 °C
4. CCN(CC)C(=O)COc1cc(O)c2c(c1)O[C@H](c1ccc(OC)c(O)c1)CC2=O [Compound 4i]; 146.3 to 147.8 °C
5. COc1ccc([C@@H]2CC(=O)c3c(O)cc(OCC(=O)NC4CCCC4)cc3O2)cc1O [Compound 4k]; 187.5 to 190 °C

Answer for every listed entry: what is its melting point? The entries follow.
1. COc1ccc([C@@H]2CC(=O)c3c(O)cc(OCC(=O)NC(C)(C)C)cc3O2)cc1O [Compound 4h]
2. COc1ccc([C@@H]2CC(=O)c3c(O)cc(OCC(=O)NCCN4CCOCC4)cc3O2)cc1O [Compound 7c]
3. CCNC(=O)COc1cc(O)c2c(c1)O[C@H](c1ccc(OC)c(O)c1)CC2=O [Compound 4b]
4. COc1ccc([C@@H]2CC(=O)c3c(O)cc(OCC(=O)N4CCN(C)CC4)cc3O2)cc1O [Compound 6d]
5. COc1ccc([C@@H]2CC(=O)c3c(O)cc(OCC(=O)NC4CCCCC4)cc3O2)cc1O [Compound 4l]

1: 140.5 to 142.4 °C; 2: 160.7 to 162.9 °C; 3: 171.2 to 173.6 °C; 4: 167.3 to 170.1 °C; 5: 181.9 to 184.1 °C

----------
Task for the reader: assign each of the following compounds its reported inhibition at 10 µM.
# Tested on: LPS-induced NO production in RAW264.7 cells
# procedure_text: Inhibition of LPS-induced NO production (Griess reagent)
# Format: cell-based
# cond: Mus musculus, 10 μM compound, 1 h pretreatment, then LPS (1 μg/mL) 24 h, mean ± SD (n = 3)
Give bare numbers, in %.

These solved cases illustrate the format of a correct answer.
1) COc1ccc([C@@H]2CC(=O)c3c(O)cc(OCC(=O)N4CCOCC4)cc3O2)cc1O; 21
2) COc1ccc([C@@H]2CC(=O)c3c(O)cc(OCC(=O)NCCO)cc3O2)cc1O; 15
3) COc1ccc([C@@H]2CC(=O)c3c(O)cc(OCC(=O)NCCN(C)C)cc3O2)cc1O; 12.4

What value of inhibition at 10 µM has been recorded for this entry: COc1ccc([C@@H]2CC(=O)c3c(O)cc(OCC(=O)NC4CC4)cc3O2)cc1O
9.57

----------
# System: LPS-induced NO production in RAW264.7 cells
# procedure_text: Inhibition of LPS-induced NO production (Griess reagent)
# Assay type: cell-based
# cond: Mus musculus, 10 μM compound, 1 h pretreatment, then LPS (1 μg/mL) 24 h, mean ± SD (n = 3)
observed_property: inhibition at 10 µM (%)
Numbers only, in %.

1. COc1ccc2c(c1)c(CC(=O)O)c(C)n2C(=O)c1ccc(Cl)cc1 [Ind, indomethacin, reference compound]; 12.9
2. COc1ccc([C@@H]2CC(=O)c3c(O)cc(OCC(=O)NC4CCCC4)cc3O2)cc1O [Compound 4k]; 40.9
3. COc1ccc([C@@H]2CC(=O)c3c(O)cc(OCC(=O)N4CCCC4)cc3O2)cc1O [Compound 5a]; 18.9

I would be grateful if you could provide inhibition at 10 µM for each of the following entries.
1. COc1ccc([C@@H]2CC(=O)c3c(O)cc(OCC(=O)N4CCCCC4)cc3O2)cc1O [Compound 6a]
2. COc1ccc([C@@H]2CC(=O)c3c(O)cc(OCC(=O)NC4CCCCC4)cc3O2)cc1O [Compound 4l]
3. CCCCNC(=O)COc1cc(O)c2c(c1)O[C@H](c1ccc(OC)c(O)c1)CC2=O [Compound 4f]
4. CCN(CC)C(=O)COc1cc(O)c2c(c1)O[C@H](c1ccc(OC)c(O)c1)CC2=O [Compound 4i]

1: 30.2; 2: 20.3; 3: 18; 4: 17.5

Find the measured inhibition at 10 µM: item COc1ccc([C@@H]2CC(=O)c3c(O)cc(OCC(=O)NC(C)(C)C)cc3O2)cc1O [Compound 4h] , target or system LPS-induced NO production in RAW264.7 cells.
17.5

----------
Record form. Attribute: melting point. Fill in for each entry.

Past entries and their recorded results:
1. COc1ccc([C@@H]2CC(=O)c3c(O)cc(OCC(=O)N4CCCCC4)cc3O2)cc1O [Compound 6a]; 165.4 to 167.9 °C
2. COc1ccc([C@@H]2CC(=O)c3c(O)cc(OCC(=O)N4CCCC(CO)C4)cc3O2)cc1O (stereo partly shown) [Compound 6b]; 168.6 to 171.8 °C
3. COc1ccc([C@@H]2CC(=O)c3c(O)cc(OCC(=O)N4CCCC4)cc3O2)cc1O [Compound 5a]; 127.1 to 130.5 °C
4. CCCNC(=O)COc1cc(O)c2c(c1)O[C@H](c1ccc(OC)c(O)c1)CC2=O [Compound 4d]; 135.5 to 137.7 °C

// batch mode: one melting point value per listed entry
1. COc1ccc([C@@H]2CC(=O)c3c(O)cc(OCC(=O)N4CCCCC4CO)cc3O2)cc1O (stereo partly shown) [Compound 6c]
2. COc1ccc([C@@H]2CC(=O)c3c(O)cc(OCC(=O)NCCO)cc3O2)cc1O [Compound 7a]
3. CNC(=O)COc1cc(O)c2c(c1)O[C@H](c1ccc(OC)c(O)c1)CC2=O [Compound 4a]
4. COc1ccc([C@@H]2CC(=O)c3c(O)cc(OCC(=O)N(C)C)cc3O2)cc1O [Compound 4c]

123.2 to 125.8 °C
183.8 to 185.7 °C
179.8 to 182.7 °C
164.1 to 165.8 °C

For each entry beneath this line, provide reported melting point.
1. COc1ccc([C@@H]2CC(=O)c3c(O)cc(OCC(=O)N4CCOCC4)cc3O2)cc1O [Compound 6f, 7-O-(2-Morpholino-2-oxoethyl)hesperetin]
2. COc1ccc([C@@H]2CC(=O)c3c(O)cc(OCC(=O)N4CCSC4)cc3O2)cc1O [Compound 5b]
3. COc1ccc([C@@H]2CC(=O)c3c(O)cc(OCC(=O)NCC(C)C)cc3O2)cc1O [Compound 4g]
4. COc1ccc([C@@H]2CC(=O)c3c(O)cc(OCC(=O)NCCN(C)C)cc3O2)cc1O [Compound 7b]

["188.7 to 189.3 °C", "152.4 to 154.7 °C", "136.9 to 139.4 °C", "137.1 to 139.4 °C"]

Request the reported melting point associated with COc1ccc([C@@H]2CC(=O)c3c(O)cc(OCC(=O)NC4CC4)cc3O2)cc1O [Compound 4j]
190.8 to 193.1 °C
